Data provenance is patent US20180344812A1.

Below, each entry is listed alongside its reported EC50, CRE-luciferase reporter in HEK293-GCGR-CRE cells.
target: human glucagon receptor (GCGR) (human, UniProt P47871 26-477); assay: cell-based or functional assay
Sequence (P47871 26-477): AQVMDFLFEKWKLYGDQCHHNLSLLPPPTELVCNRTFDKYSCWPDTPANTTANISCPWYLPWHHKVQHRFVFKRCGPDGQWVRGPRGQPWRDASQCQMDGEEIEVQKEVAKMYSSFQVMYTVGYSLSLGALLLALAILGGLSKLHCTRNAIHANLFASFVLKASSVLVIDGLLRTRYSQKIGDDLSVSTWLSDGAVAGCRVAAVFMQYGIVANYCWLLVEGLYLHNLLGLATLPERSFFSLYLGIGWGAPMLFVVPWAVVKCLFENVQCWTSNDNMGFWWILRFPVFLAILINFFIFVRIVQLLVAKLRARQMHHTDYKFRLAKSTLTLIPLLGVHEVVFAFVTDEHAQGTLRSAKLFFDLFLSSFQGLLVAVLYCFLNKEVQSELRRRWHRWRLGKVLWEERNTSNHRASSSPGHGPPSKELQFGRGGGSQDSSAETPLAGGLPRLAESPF
Bridges are numbered along the chain shown (N, C = ends). Primed or numbered codes have the meaning given here. Where no end group is shown, it is not given here. [ ]: non-standard residue; d: D form. L2″ = myristic acid-PEG-ornithine staple, joins two Cys through thioethers; L4 = octadecanedioic acid-PEG-ornithine staple; L5 = C18 diacid-Lys-PEG2-ornithine staple; L6 = made as L5 but on Rink amide resin; L12 = not defined here; L13 = not defined here; L7 = not defined here
Record the value in nM, omitting the unit from your answer.

Worked examples follow.
>  <binder>
H[dS]QGTFTSDYSKYLDECAAKEFICWLMNTKRNRNNIA (linker 17-24 via L12; reading uncertain; also: printed as HsQGTFTSDYSKYLDEXAAKEFIXWLMNTKRNRNNIA) [mTA 25: OXM (B) and L12]

>  <value unit>
nM

>  <result value>
0.5

$$$$
>  <binder>
H[dS]QGTFTSDYSKYLDECAAKEFICWLMNTKRNRNNIA (linker 17-24 via L13; reading uncertain; also: printed as HsQGTFTSDYSKYLDEXAAKEFIXWLMNTKRNRNNIA) [mTA 26: OXM (B) and L13]

>  <value unit>
nM

>  <result value>
0.5

$$$$
>  <binder>
H[dS]QGTFTSDYSKYLDECAAKEFICWLLNGGPSSGAPPPS (linker 17-24 via L4) [mTA 37: GLP-1/Glucagon (D) and L4]

>  <value unit>
nM

>  <result value>
0.2

$$$$
>  <binder>
H[dS]QGTFTSDYSKYLDECAAKEFICWLLRAGPSSGAPPPS (linker 17-24 via L4) [mTA 34: GLP-1/Glucagon (C) and L4]

>  <value unit>
nM

>  <result value>
0.4

$$$$
>  <binder>
H[dS]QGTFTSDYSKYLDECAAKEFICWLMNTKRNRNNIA (linker 17-24 via L7; reading uncertain; also: printed as HsQGTFTSDYSKYLDEXAAKEFIXWLMNTKRNRNNIA) [mTA 20: OXM (B) and L7]

>  <value unit>
nM

>  <result value>
5.4

$$$$

Req: Item H[dS]QGTFTSDYSKYLDECAAKEFICWLLRAGPSSGAPPPS (linker 17-24 via L5) [mTA 35: GLP-1/Glucagon (C) and L5] has what recorded EC50, CRE-luciferase reporter in HEK293-GCGR-CRE cells?
Resp: 1

Req: Item H[dS]QGTFTSDYSKYLDECAAKEFICWLLRA (linker 17-24 via L6) [mTA 33: GLP-1/Glucagon (B) and L6] has what recorded EC50, CRE-luciferase reporter in HEK293-GCGR-CRE cells?
Resp: 0.4

Req: Item H[dS]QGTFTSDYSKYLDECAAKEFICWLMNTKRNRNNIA (linker 17-24 via L2″) [mTA 16: OXM (B) and L2] has what recorded EC50, CRE-luciferase reporter in HEK293-GCGR-CRE cells?
Resp: 0.3

Req: Item H[dS]QGTFTSDYSKYLDECAAKEFICWLLRA (linker 17-24 via L5) [mTA 32: GLP-1/Glucagon (B) and L5] has what recorded EC50, CRE-luciferase reporter in HEK293-GCGR-CRE cells?
Resp: 1
